assay: Dynamic light scattering of LNPs: Z-average diameter, number average diameter, PDI; format: physicochemical; settings: LNP, sg:mRNA 1:1, N/P about 6, 50/9/38/3; Table 2, Experiments 2-20
readoutType: PDI

For orientation, consider the following solved cases.
compound	testResult
CCCCC/C=C\C/C=C\CCCCCCCC(=O)OCC(COC(=O)CCC(OCCCCCCCC)OCCCCCCCC)COC(=O)NC1CCN(CC)C1 (stereo not shown)	0.074
CCCCC/C=C\C/C=C\CCCCCCCC(=O)OCC(COC(=O)CCC(OCCCCCCCC)OCCCCCCCC)COC(=O)OCC1CCN(CC)C1 (stereo not shown)	0.018
CCCCC/C=C\C/C=C\CCCCCCCC(=O)OCC(COC(=O)CCC(OCCCCCCCC)OCCCCCCCC)COC(=O)OCCN1CCCC1 (stereo not shown)	0.086
CCCCC/C=C\C/C=C\CCCCCCCC(=O)OCC(COC(=O)CCCCN(C)C)COC(=O)CCC(OCCCCCCCC)OCCCCCCCC (stereo not shown)	0.080
CCCCCCCCCCOC(=O)CCCCCCCC(=O)OCC(COC(=O)CCC(OCCCCCCCCC)OCCCCCCCCC)COC(=O)OCCCN(CC)CC (stereo not shown)	0.019

(I) CCCCC/C=C\C/C=C\CCCCCCCC(=O)OCC(COC(=O)CCCCN(CC)CC)COC(=O)CCC(OCCCCCCCC)OCCCCCCCC (stereo not shown)
(II) CCCCC/C=C\C/C=C\CCCCCCCC(=O)OCC(COC(=O)CCCC(CCCCCCC)CCCCCCC)COC(=O)OCCCN(CC)CC (stereo not shown)
Q. Which item exceeds the other in PDI, I or II ? # answer = label of selected item
A. II

// data source = patent US20220402862A1
